Values from the supplement of paper PMC10567573

B1: SFRS1 (parent)
chain: YSPRRSRGSPRYSPRHSRSRSRT

Variants of: B1
MEASUREMENT_NOTES: protein stability index of a GFP-peptide fusion (GPS, HEK-293T) (PSI 1-6); higher = more stable;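 note: lentivirally expressed fusions sorted by FACS into six bins by GFP to DsRed ratio, PSI derived from sequencing read proportions per bin multiplied by bin number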
PROTOCOL_CONDITIONS: c terminus: native
Lab note: anything with protein stability index at or over 4 counts as class 1; the rest go in class 0.

Examples with answers:
S9G = class 1
R11P = class 0
G8A = class 1
R5N = class 0
S9H = class 0
R18F = class 0
Y1G = class 1
R20N = class 1
H16Y = class 1
R18L = class 0

Dear colleague, could you confirm whether R20W has protein stability index at or above 4? class 0

Dear colleague, could you confirm whether P14I has protein stability index at or above 4? class 1
